Quick reference for pEC50 among some compounds
# TARGET_ENTITY: Beta-2 adrenergic receptor (Homo sapiens) (UniProt P07550)
# Sequence (P07550 whole entry, looked up): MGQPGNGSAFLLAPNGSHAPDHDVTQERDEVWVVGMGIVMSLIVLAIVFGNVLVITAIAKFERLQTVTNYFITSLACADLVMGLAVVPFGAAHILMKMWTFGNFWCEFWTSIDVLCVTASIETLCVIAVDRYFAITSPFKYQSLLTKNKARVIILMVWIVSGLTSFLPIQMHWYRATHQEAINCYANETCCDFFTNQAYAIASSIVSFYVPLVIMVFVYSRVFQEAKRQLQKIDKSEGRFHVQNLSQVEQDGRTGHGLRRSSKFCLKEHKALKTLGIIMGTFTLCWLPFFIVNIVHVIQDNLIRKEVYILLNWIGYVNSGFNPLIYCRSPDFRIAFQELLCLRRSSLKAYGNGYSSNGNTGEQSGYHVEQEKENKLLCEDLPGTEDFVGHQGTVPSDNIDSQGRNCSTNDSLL
# PROTOCOL_NOTES: ADRB2 activation measured by internalization – cell-based, FAP fluorogen, flow cytometry, powder set 4, dose response (AID 651872)
# ASSAY_CONDITIONS: AM2.2-beta2AR cells, 90 min
pEC50: −log10 of the molar value.
EXPERIMENTAL_ENDPOINT: pEC50

1. O=C(C1CCC(=O)N1S(=O)(=O)c1ccccc1)N1CCN(c2ccccn2)CC1 (stereo unspecified)	7.58
2. CC(=O)Nc1ccc(S(=O)(=O)N2CCCCC2c2cccnc2)cc1 (stereo unspecified)	7.98
3. COc1ccccc1N1CCN(C(=O)CN(C)S(=O)(=O)c2ccc(C)cc2)CC1	6.17
4. Cc1ccc(S(=O)(=O)N(C)CC(=O)N2CCN(c3ccccn3)CC2)cc1	8.80
5. CN(CC(=O)N1CCN(c2cccc(C(F)(F)F)c2)CC1)S(=O)(=O)c1ccc(F)cc1	5.02
6. O=C(CN(Cc1ccccc1)S(=O)(=O)c1ccc(Cl)cc1)N1CCN(c2ccccn2)CC1	6.68
